System: MDA-MB-468
Assay: NCI-60 anticancer screen (SRB; single dose and five doses)
Type: cell-based, human
Settings: Homo sapiens; MDA-MB-468, Breast Cancer, five dose; read-out: LC50 (the source's name)
Rule: measured CC50 below 30 µM gets True; anything equal to or greater than 30 µM gets False.

>  <input smiles>
Cc1[nH]c(=S)sc1C(=O)/C=C/c1ccc(Br)cc1

>  <experimental target>
MDA-MB-468

>  <class>
True

$$$$
>  <input smiles>
Cc1[nH]c(=S)sc1C(=O)/C=C/c1ccc(F)cc1

>  <experimental target>
MDA-MB-468

>  <class>
True

$$$$
>  <input smiles>
Cc1[nH]c(=S)sc1C(=O)/C=C/c1ccc([N+](=O)[O-])cc1

>  <experimental target>
MDA-MB-468

>  <class>
False

$$$$
>  <input smiles>
Cc1[nH]c(=S)sc1C(=O)/C=C/c1cccc([N+](=O)[O-])c1

>  <experimental target>
MDA-MB-468

>  <class>
False

$$$$
>  <input smiles>
Cc1[nH]c(=S)sc1C(=O)/C=C/c1cccc(Cl)c1

>  <experimental target>
MDA-MB-468

>  <class>
False

$$$$
>  <input smiles>
COc1cc(/C=C/C(=O)c2sc(=S)[nH]c2C)cc(OC)c1OC

>  <experimental target>
MDA-MB-468

>  <class>
True

$$$$

----------
System: A498
Test: NCI-60 anticancer screen (SRB; single dose and five doses)
Details: Homo sapiens, A498
Catalogue of IC50 readings, one per entry.

>  <input smiles>
Cc1[nH]c(=S)sc1C(=O)/C=C/c1cccc([N+](=O)[O-])c1

>  <IC50>
29.5 µM

$$$$
>  <input smiles>
Cc1[nH]c(=S)sc1C(=O)/C=C/c1ccc(Cl)cc1

>  <IC50>
30.9 µM

$$$$
>  <input smiles>
COc1cc(/C=C/C(=O)c2sc(=S)[nH]c2C)cc(OC)c1OC

>  <IC50>
43.6 µM

$$$$
>  <input smiles>
Cc1[nH]c(=S)sc1C(=O)/C=C/c1cccc(Cl)c1

>  <IC50>
47.9 µM

$$$$

----------
Collected IC50 values appear next to each entry.
Tested on: SW-620
Test: NCI-60 anticancer screen (SRB; single dose and five doses)
Settings: Homo sapiens, SW-620
assay endpoint: IC50

>  <compound>
Cc1[nH]c(=S)sc1C(=O)/C=C/c1cccc([N+](=O)[O-])c1 [2h]

>  <assay value>
4.07 µM

$$$$
>  <compound>
Cc1[nH]c(=S)sc1C(=O)/C=C/c1cccc(Cl)c1 [2e]

>  <assay value>
3.16 µM

$$$$
>  <compound>
COc1cc(/C=C/C(=O)c2sc(=S)[nH]c2C)cc(OC)c1OC [2p]

>  <assay value>
3.72 µM

$$$$
>  <compound>
Cc1[nH]c(=S)sc1C(=O)/C=C/c1ccc(Cl)cc1 [2f]

>  <assay value>
4.37 µM

$$$$

----------
System: CCRF-CEM
Test: NCI-60 anticancer screen (SRB; single dose 10 μM and five doses)
Details: Homo sapiens, five doses
pIC50: −log10 of the molar value.

>  <input smiles>
Cc1[nH]c(=S)sc1C(=O)/C=C/c1ccc(Cl)cc1

>  <pIC50>
5.54

$$$$

----------
Reported values of activity at 10 µM for individual entries
System: ACHN
Assay: NCI-60 anticancer screen (SRB; single dose and five doses)
Details: Homo sapiens, 48 h, read-out: Growth Percentage

>  <compound>
Cc1[nH]c(=S)sc1C(=O)/C=C/c1ccc(Cl)cc1 [2f]

>  <experimental target>
ACHN

>  <activity at 10 µM / %>
34.6

$$$$
>  <compound>
Cc1[nH]c(=S)sc1C(=O)/C=C/c1ccc(N(C)C)cc1 [2k]

>  <experimental target>
ACHN

>  <activity at 10 µM / %>
75.7

$$$$
>  <compound>
COc1cc(/C=C/C(=O)c2sc(=S)[nH]c2C)cc(OC)c1OC [2p]

>  <experimental target>
ACHN

>  <activity at 10 µM / %>
19.6

$$$$
>  <compound>
Cc1[nH]c(=S)sc1C(=O)/C=C/c1cccc([N+](=O)[O-])c1 [2h]

>  <experimental target>
ACHN

>  <activity at 10 µM / %>
-58.4

$$$$

----------
Tested on: SF-539
Assay: NCI-60 anticancer screen (SRB; single dose and five doses)
Conditions: Homo sapiens, SF-539
assay endpoint: IC50 (µM)

>  <molecule>
Cc1[nH]c(=S)sc1C(=O)/C=C/c1ccc(Cl)cc1 [2f]

>  <assay endpoint>
IC50

>  <assay value>
16.2

$$$$
>  <molecule>
Cc1[nH]c(=S)sc1C(=O)/C=C/c1cccc(Cl)c1 [2e]

>  <assay endpoint>
IC50

>  <assay value>
3.63

$$$$
>  <molecule>
COc1cc(/C=C/C(=O)c2sc(=S)[nH]c2C)cc(OC)c1OC [2p]

>  <assay endpoint>
IC50

>  <assay value>
4.47

$$$$
>  <molecule>
Cc1[nH]c(=S)sc1C(=O)/C=C/c1cccc([N+](=O)[O-])c1 [2h]

>  <assay endpoint>
IC50

>  <assay value>
3.98

$$$$

----------
Test system: SNB-19
Assay: cells
Conditions: Homo sapiens, SNB-19, 48 h, read-out: Growth Percentage
// activity at 10 µM lookup, one value per entry
assay endpoint: activity at 10 µM (%)

>  <molecule>
Cc1[nH]c(=S)sc1C(=O)/C=C/c1ccccc1Cl [2d]

>  <assay value>
85.2

$$$$
>  <molecule>
Cc1[nH]c(=S)sc1C(=O)/C=C/c1ccc(F)cc1 [2c]

>  <assay value>
33.7

$$$$
>  <molecule>
COc1ccc(/C=C/C(=O)c2sc(=S)[nH]c2C)c(OC)c1 [2n]

>  <assay value>
77.4

$$$$
>  <molecule>
Cc1[nH]c(=S)sc1C(=O)/C=C/c1ccc(Br)cc1 [2g]

>  <assay value>
32.7

$$$$
>  <molecule>
COc1ccc(/C=C/C(=O)c2sc(=S)[nH]c2C)cc1OC [2o]

>  <assay value>
61.9

$$$$
>  <molecule>
Cc1[nH]c(=S)sc1C(=O)/C=C/c1cccc(F)c1 [2b]

>  <assay value>
44

$$$$
>  <molecule>
Cc1ccc(/C=C/C(=O)c2sc(=S)[nH]c2C)cc1 [2j]

>  <assay value>
65.5

$$$$
>  <molecule>
COc1cccc(/C=C/C(=O)c2sc(=S)[nH]c2C)c1OC [2m]

>  <assay value>
37.2

$$$$
>  <molecule>
Cc1[nH]c(=S)sc1C(=O)/C=C/c1ccc([N+](=O)[O-])cc1 [2i]

>  <assay value>
41.2

$$$$
>  <molecule>
COc1ccc(/C=C/C(=O)c2sc(=S)[nH]c2C)cc1 [2l]

>  <assay value>
75.6

$$$$
>  <molecule>
Cc1[nH]c(=S)sc1C(=O)/C=C/c1ccc(N(C)C)cc1 [2k]

>  <assay value>
71.2

$$$$

----------
System: NCI-H23
Assay: NCI-60 anticancer screen (SRB; single dose and five doses)
Settings: Homo sapiens, NCI-H23
pIC50: −log10 of the molar value.
Quick reference: pIC50 of the listed items.
assay endpoint: pIC50

>  <compound>
Cc1[nH]c(=S)sc1C(=O)/C=C/c1ccc(Cl)cc1 [2f]

>  <assay endpoint>
pIC50

>  <assay value>
4.57

$$$$
>  <compound>
Cc1[nH]c(=S)sc1C(=O)/C=C/c1cccc([N+](=O)[O-])c1 [2h]

>  <assay endpoint>
pIC50

>  <assay value>
5.00

$$$$
>  <compound>
Cc1[nH]c(=S)sc1C(=O)/C=C/c1cccc(Cl)c1 [2e]

>  <assay endpoint>
pIC50

>  <assay value>
5.44

$$$$
>  <compound>
COc1cc(/C=C/C(=O)c2sc(=S)[nH]c2C)cc(OC)c1OC [2p]

>  <assay endpoint>
pIC50

>  <assay value>
5.28

$$$$

----------
Documented pIC50 across a set of compounds
System: OVCAR-4
Test: NCI-60 anticancer screen (SRB; single dose and five doses)
Conditions: Homo sapiens, OVCAR-4
pIC50: −log10 of the molar value.

>  <input smiles>
Cc1[nH]c(=S)sc1C(=O)/C=C/c1cccc(Cl)c1

>  <experimental target>
OVCAR-4

>  <pIC50>
4.89

$$$$
>  <input smiles>
Cc1[nH]c(=S)sc1C(=O)/C=C/c1cccc([N+](=O)[O-])c1

>  <experimental target>
OVCAR-4

>  <pIC50>
4.69

$$$$
>  <input smiles>
COc1cc(/C=C/C(=O)c2sc(=S)[nH]c2C)cc(OC)c1OC

>  <experimental target>
OVCAR-4

>  <pIC50>
5.18

$$$$
>  <input smiles>
Cc1[nH]c(=S)sc1C(=O)/C=C/c1ccc(Cl)cc1

>  <experimental target>
OVCAR-4

>  <pIC50>
4.60

$$$$
